Molecular target: GDP-bound KRAS wild-type protein (Homo sapiens)
Sequence (P01116 whole entry): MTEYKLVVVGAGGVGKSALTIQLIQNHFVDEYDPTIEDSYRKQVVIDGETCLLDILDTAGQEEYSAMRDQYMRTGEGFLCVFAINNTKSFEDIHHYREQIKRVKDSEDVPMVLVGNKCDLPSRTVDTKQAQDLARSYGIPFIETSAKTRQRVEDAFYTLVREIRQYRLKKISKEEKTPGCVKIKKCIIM
Test: Binding to KRAS by surface plasmon resonance (SPR), Single Cycle Kinetics
Conditions: SPR, Single Cycle Kinetics, GDP-bound KRAS wild-type protein; read-out: KRAS KD
Recorded Kd, one value per entry.
The response must be a number in nM with no trailing unit.

* CCO[C@@H]1C[C@H]2C(=O)NC3(CC(C)(C)C3)C(=O)N(C)[C@@H](C3CCCC3)C(=O)N(C)[C@H](C(=O)N(C)CC)CC(=O)N(C)[C@@H](CC)C(=O)N[C@@H]([C@@H](C)CC)C(=O)N(C)CC(=O)N(C)[C@H]3C/C=C\CCN(C3=O)[C@@H](Cc3ccc(C)cc3)C(=O)N(C)CC(=O)N[C@@H](CCc3ccc(C(F)(F)F)c(Cl)c3)C(=O)N2C1 | 0.15

// Kd lookup, key: `CC[C@H](C)[C@@H]1NC(=O)[C@H](CCOC)N(C)C(=O)C[C@@H](C(=O)N(C)CC)N(C)C(=O)[C@H](C2CCCC2)N(C)C(=O)C2(CC(C)(C)C2)NC(=O)[C@@H]2C[C@H](C)CN2C(=O)[C@H](CCc2ccc(C(F)(F)F)c(OC)c2)NC(=O)CN(C)C(=O)[C@H](Cc2ccc(C(F)(F)F)cc2)N2CC/C=C\C[C@@H](C2=O)N(C)C(=O)CN(C)C1=O`
0.13

// Kd lookup, key: `CCO[C@@H]1C[C@H]2C(=O)NC3(CCCC3)C(=O)N(C)[C@@H](C3CCCC3)C(=O)N(C)[C@H](C(=O)N3CCOCC3)CC(=O)N(C)[C@@H](CC)C(=O)N[C@@H]([C@@H](C)CC)C(=O)N(C)CC(=O)N(C)[C@H]3CC(C)=CCN(C3=O)[C@@H](Cc3ccc(C(F)(F)F)cc3)C(=O)N(C)CC(=O)N[C@@H](CCc3cc(F)c(C(F)(F)F)c(F)c3)C(=O)N2C1`
2.4
